# target.under.test: T1, recombinant, soluble human ASGR-1 (human, UniProt P07306 62-291)
# T1 construct: biotinylated in the binning assay; also called soluble huASGR-1; Soluble ASGR-1 (Amgen)
# T1 sequence: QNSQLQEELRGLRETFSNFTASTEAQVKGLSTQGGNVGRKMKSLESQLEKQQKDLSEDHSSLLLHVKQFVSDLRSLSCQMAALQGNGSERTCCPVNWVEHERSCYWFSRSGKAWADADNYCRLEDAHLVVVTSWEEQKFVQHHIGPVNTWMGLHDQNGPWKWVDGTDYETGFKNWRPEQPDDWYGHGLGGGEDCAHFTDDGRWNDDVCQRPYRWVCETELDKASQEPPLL
# test: Octet BLI dissociation, pH 5.6 minus calcium
# Experimental: The relative dissociation of ASGR-1 from antibodies was measured using a label-free assay on an OctetHTX instrument (Fortebio). Antibody samples were captured on anti-HuFc kinetic biosensors (ForteBio cat #18-5064) at 5 ug/mL in assay buffer (10 mM Tris, 0.1% Triton, 150 mM NaCl, 1 mg/mL BSA, 1 mM CaCl2, pH7.4) for three minutes. […] Soluble ASGR-1 (Amgen) at 6 ug/ml in assay buffer was added and association to the antibodies was monitored for two minutes. […]
property.measured: % Change Compared to pH 7.4 + Calcium (%)
Give your result in % as a bare value.

-- ask Please report the recorded % Change Compared to pH 7.4 + Calcium for 192G8 (antibody, V domains shown, hybridoma mAb) VH: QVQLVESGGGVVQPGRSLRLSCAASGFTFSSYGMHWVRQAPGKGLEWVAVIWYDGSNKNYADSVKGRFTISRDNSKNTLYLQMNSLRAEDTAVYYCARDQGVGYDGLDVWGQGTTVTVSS VL: DIQMTQSPSSLSASVGDRVTITCRTSQGIGNYLAWFQQKPGKAPKSLLYKASSLQSGVPSKFSGSGSGTDFTLTISSLQPEDFATYYCQQYITYPLTFGGGTKVEIK .
-- reply -6

-- ask Please report the recorded % Change Compared to pH 7.4 + Calcium for 10G6 (antibody, V domains shown, hybridoma mAb) VH: QVQLVQSGAEVKKPGASVKVSCKASGYTFTAYHMHWVRQAPGQGLEWMGWINPNNNGTNYAQKFQGRVTMTRDTSISTAYMELSRLRSDDTAVYYCGRDVTSSFDYWGQGTLVTVSS VL: DIQMTQSPSSVSASVGDRVTITCRASQGISKWLAWYQQKPGKAPKILIYAAYSLQSGVPARFSGSGSGTDFTLTIRSLQPEDFATYYCQQANSFPFTFGPGTKVDIK .
-- reply 15

-- ask Please report the recorded % Change Compared to pH 7.4 + Calcium for 60C12 (antibody, V domains shown, hybridoma mAb) VH: QVQLVESGGGVVQPGRSLRLSCAASGFTFSSYGMHWVRQAPGKGLEWVAVIWYDGSNKYYVDSVKGRFTISRDNSKNTLYLQMNSLRAEDTAVYYCARRYSRSWTGGMDVWGQGTTVTVSS VL: DIVMTQTPLSLSVTPGQPASISCKSSQSLLHSEGKTYLYWYLQKPGQPPQFLIYEVSNRFSGVPDRFSGSGSGTDFTLKISRVEAEDVGIYYCMQSIKYPLTFGGGTKVEIK .
-- reply 12

-- ask Please report the recorded % Change Compared to pH 7.4 + Calcium for 50G9 (antibody, V domains shown, hybridoma mAb) VH: QVQLVESGGGVVQPGRSLRLSCAASGFIFSSYGMHWVRQAPGKGLEWVAVISQDGIIRYYADSVKGRFTISRDNSKNTLYLQMNSLRAEDTAVYYCARDVKQWLVRTYGMDVWGQGTTVTVSS VL: SYELTQPPSVSVSPGQTASITCSGDKLGDKYACWYQQKPGQSPVLVIYQDSKRPSGIPERFSGSNSGNTATLTISGTQARDEAEYYCQARNSRRGVFGGGTRLTVL .
-- reply 44

-- ask Please report the recorded % Change Compared to pH 7.4 + Calcium for 73G1 (antibody, V domains shown, hybridoma mAb) VH: QVQLVESGGGVVQPGRSLRLSCAGTGFTFSYYGMHWVRQAPGKGLEWVAVTTYDGSNKYYADSVKGRFTSSRDNSKNTLYLQMNSLRAEDTAVYHCARETGTWAFDIWGQGTMVTVSL VL: QTVVTQEPSFSVSPGGTVTLTCGLSSGSVSTSYYPSWYQQTPGQAPRTLIYNTNTRSSGVPDRFSGSILGNKAALTITGAQADDESDYYCVLYMGSAIWVFGGGTKLTVL .
-- reply 62
